The measurements presented in this section are drawn from patent US20220185900A1.

# assay system: T1, hRET.mFc (human)
# T1 construct: also called dimeric human RET
# assay procedure: SPR Biacore T200, mAb capture, 25 C
Each entry below carries its recorded kon.
Give the value in M⁻¹ s⁻¹ but do not write M⁻¹ s⁻¹ after it.

binder	kon, M⁻¹ s⁻¹
H4H8058P (antibody, human IgG4, V domains shown, human IgG4 Fc (H4H prefix)) VH: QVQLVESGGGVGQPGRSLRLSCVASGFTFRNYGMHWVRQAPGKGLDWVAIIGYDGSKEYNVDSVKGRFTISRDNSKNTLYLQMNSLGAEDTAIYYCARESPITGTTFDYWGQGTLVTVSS VL: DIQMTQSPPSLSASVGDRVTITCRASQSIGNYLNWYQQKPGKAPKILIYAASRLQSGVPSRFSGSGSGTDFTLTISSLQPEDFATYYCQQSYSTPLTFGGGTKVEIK	236000

Sample H4H8067P (antibody, human IgG4, V domains shown, human IgG4 Fc (H4H prefix)) VH: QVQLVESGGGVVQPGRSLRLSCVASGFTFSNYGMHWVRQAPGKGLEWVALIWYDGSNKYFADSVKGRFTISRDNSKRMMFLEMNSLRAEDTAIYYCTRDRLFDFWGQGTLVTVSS VL: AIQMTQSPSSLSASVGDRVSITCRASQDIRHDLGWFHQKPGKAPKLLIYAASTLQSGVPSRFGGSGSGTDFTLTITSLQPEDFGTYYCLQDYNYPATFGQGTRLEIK — what was its kon?
168000

Sample H4H8083P (antibody, human IgG4, V domains shown, human IgG4 Fc (H4H prefix)) VH: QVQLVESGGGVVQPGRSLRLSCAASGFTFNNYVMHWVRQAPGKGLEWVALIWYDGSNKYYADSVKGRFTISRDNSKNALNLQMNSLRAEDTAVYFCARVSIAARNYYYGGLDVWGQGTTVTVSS VL: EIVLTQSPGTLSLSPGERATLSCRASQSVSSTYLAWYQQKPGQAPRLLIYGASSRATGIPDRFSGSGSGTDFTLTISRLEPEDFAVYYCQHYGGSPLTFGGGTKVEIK — what was its kon?
197000

Sample H4H8076P (antibody, human IgG4, V domains shown, human IgG4 Fc (H4H prefix)) VH: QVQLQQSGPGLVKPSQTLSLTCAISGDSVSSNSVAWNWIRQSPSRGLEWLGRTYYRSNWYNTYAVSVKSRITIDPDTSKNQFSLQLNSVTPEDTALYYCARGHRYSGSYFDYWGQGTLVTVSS VL: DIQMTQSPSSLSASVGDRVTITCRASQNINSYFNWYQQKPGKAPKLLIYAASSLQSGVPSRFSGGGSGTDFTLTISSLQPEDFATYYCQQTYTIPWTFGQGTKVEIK — what was its kon?
250000

Sample H4H8062P (antibody, human IgG4, V domains shown, human IgG4 Fc (H4H prefix)) VH: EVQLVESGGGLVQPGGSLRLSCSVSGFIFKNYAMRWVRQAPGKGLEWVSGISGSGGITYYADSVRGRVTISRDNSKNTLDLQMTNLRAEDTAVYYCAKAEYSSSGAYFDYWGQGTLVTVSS VL: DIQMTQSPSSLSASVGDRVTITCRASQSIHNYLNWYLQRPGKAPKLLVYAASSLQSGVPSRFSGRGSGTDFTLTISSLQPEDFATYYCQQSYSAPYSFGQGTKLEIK — what was its kon?
400000
